Let's look at some compounds and their measured log10 of Ki.
Assay: Displacement of [3H]DTG from sigma 2 receptor in rat liver membrane
Format: cell membranes
Record value = log10 of Ki given in µM.

Sample records with log10 of Ki:
Cc1cc(C)c(CN2CCC(Cn3c(=O)oc4ccccc43)CC2)c(C)c1
0.46
O=c1oc2ccccc2n1CC1CCN(Cc2ccccc2)CC1
-0.61
O=c1oc2ccccc2n1CC1CCN(Cc2ccccc2Cl)CC1
-0.52
Cc1ccccc1CN1CCC(Cn2c(=O)oc3ccccc32)CC1
-0.47

Ask | // log10 of Ki lookup, key: Cc1ccccc1NC(=N)Nc1ccccc1C
Reply | -0.89

Ask | // log10 of Ki lookup, key: Cc1ccc(CN2CCC(Cn3c(=O)oc4ccccc43)CC2)cc1
Reply | -0.94
